tested on: OVCAR-5; test: NCI tumour cell line growth inhibition, 48 h
Calls of active or inactive are those of the source. No stated cut-off is given here; in the data, active = GI50 up to about 1.1 µM and inactive = higher.

molecule	target.or.system	GI50
COC(=O)CCC(=O)CC(=O)C(=O)Nc1c(Cl)cc([N+](=O)[O-])cc1Cl	OVCAR-5	> 100 µM (inactive)
CC1CC[C@]2(C(=O)O)CCC3(C)C(=C2[C@H]1C)C=CC1[C@@]2(C)CC[C@H](O)C(C)(C)C2CC[C@]13C (stereo not given in full)	OVCAR-5	39.5 µM (inactive)
O=C1CN(c2ccccc2)C(=O)CN1NCNN1CC(=O)N(c2ccccc2)CC1=O	OVCAR-5	> 100 µM (inactive)
COc1ccc(-c2nc3c(nc2-c2ccc(OC)cc2)N(C)S(=O)(=O)N=C3N)cc1	OVCAR-5	25.2 µM (inactive)
[N-]=[N+]=NC(c1cn(C2CC(O)C(CO)O2)c(=O)[nH]c1=O)C(Br)Br (stereo not given)	OVCAR-5	> 100 µM (inactive)
O=C1N=C(c2ccccc2)O/C1=C\c1ccccc1	OVCAR-5	> 100 µM (inactive)
Cn1c2ccccc2c(=O)c2c(O)cc3c(c21)CC(C1(C)CO1)O3 (stereo not given)	OVCAR-5	6.53 µM (inactive)
NS(=O)(=O)c1nnc(NC(=O)c2ccccc2)s1	OVCAR-5	> 100 µM (inactive)
CCOC(=O)c1nc2cc(F)c(N3CCOCC3)cc2[nH]c1=O	OVCAR-5	> 100 µM (inactive)
Cc1c2ccccc2c(C2C3C(=O)N(c4ccc(Br)cc4)C(=O)C3ON2C(C(N)=O)c2ccccc2)c2ccccc12 (stereo not given)	OVCAR-5	5.6 µM (inactive)
